molecular target: β2 subunit of the constitutive proteasome (Homo sapiens, UniProt P49720+Q99436)
pIC50: −log10 of the molar value.
TEST READOUT: pIC50

input: Please provide the recorded pIC50 for "COc1ccc(C[C@H](NC(=O)Cc2ccc3ccccc3c2)C(=O)N[C@@H](Cc2ccccc2)C(=O)N[C@H](/C=C/S(=O)(=O)c2ccc(O)cc2)CC(C)C)cc1" , tested on β2 subunit of the constitutive proteasome (Homo sapiens, UniProt P49720+Q99436).
output: 4.11

input: Please provide the recorded pIC50 for "COc1ccc(C[C@H](NC(=O)Cc2ccc3ccccc3c2)C(=O)N[C@@H](Cc2ccccc2)C(=O)N[C@H](/C=C/S(C)(=O)=O)CC(C)C)cc1" , tested on β2 subunit of the constitutive proteasome (Homo sapiens, UniProt P49720+Q99436).
output: < 4.00

input: Please provide the recorded pIC50 for "CCCC[C@H](NC(=O)[C@@H]1CCCN1C(=O)[C@H](C)NC(C)=O)C(=O)N[C@H](/C=C/S(=O)(=O)c1ccc(O)cc1)CC(C)C" , tested on β2 subunit of the constitutive proteasome (Homo sapiens, UniProt P49720+Q99436).
output: < 4.00

input: Please provide the recorded pIC50 for "CCCC[C@H](NC(=O)[C@@H]1CCCN1C(=O)[C@H](C)NC(C)=O)C(=O)N[C@H](/C=C/S(C)(=O)=O)CC(C)C" , tested on β2 subunit of the constitutive proteasome (Homo sapiens, UniProt P49720+Q99436).
output: < 4.00

Cited source: paper PMC3042124
